Numbers sourced from patent US5153203A.

Tested on: P. aeruginosa (IFO 3445)
test: Minimum inhibitory concentration (MIC), standard method of the Japan Society of Chemotherapy
Assay type: cell-based
condition_notes: Pseudomonas aeruginosa, IFO3445
property_name: MIC (µg/mL)
Write down the numeric answer in µg/mL and omit the unit.

Given item Cl.O=C(O)c1cn(C2CC2)c2cc(OC3CCNC3)c(F)cc2c1=O (stereo not drawn) [Compound 1] , the value recorded as its MIC is 3.13

Given item Cl.Nc1c(F)c(OC2CCNC2)c(F)c2c1c(=O)c(C(=O)O)cn2C1CC1 (stereo not drawn) [Compound 8] , the value recorded as its MIC is 0.78

Given item CC1COc2c(OC3CCNC3)c(F)cc3c(=O)c(C(=O)O)cn1c23.Cl (stereo not drawn) [Compound 9] , the value recorded as its MIC is 25

Given item CCn1cc(C(=O)O)c(=O)c2cc(F)c(N3CCOC3)cc21 [Compound 58] , the value recorded as its MIC is 6.25

* * *

MIC tested on S. aureus 209 P (IFO 12732): recorded values
Write down the numeric answer in µg/mL and omit the unit.

Some compounds with recorded MIC:
- compound: "O=C(O)c1cn(C2CC2)c2c(F)c(N3CCCOC3)c(F)cc2c1=O [Compound 76]"
  MIC (µg/mL): 0.39
- compound: "CN(C)CC1CN(c2cc3c(cc2F)c(=O)c(C(=O)O)cn3C2CC2)CO1 (stereo not drawn) [Compound 60]"
  MIC (µg/mL): 0.2
- compound: "Cl.O=C(O)c1cn(C2CC2)c2c(F)c(OC3CCNC3)c(F)cc2c1=O (stereo not drawn) [Compound 2]"
  MIC (µg/mL): 0.78
- compound: "CCn1cc(C(=O)O)c(=O)c2cc(F)c(N3CCOC3)cc21 [Compound 58]"
  MIC (µg/mL): 0.39
- compound: "O=C(O)c1cn(C2CC2)c2c(F)c(N3COC(CO)C3)c(F)cc2c1=O (stereo not drawn) [Compound 74]"
  MIC (µg/mL): 0.1

Here is the next item to consider.
Let me check: Cl.O=C(O)c1cn(-c2ccc(F)cc2F)c2nc(OC3CCNC3)c(F)cc2c1=O (stereo not drawn) [Compound 10] , system S. aureus 209 P (IFO 12732), measured MIC is 1.56

* * *

The following compounds are listed with their measured MIC values.
Tested on: S. aureus 209 P (IFO 12732)
Could you give the number and then its unit, please?

- compound: "CC1CN(c2c(F)cc3c(=O)c(C(=O)O)cn(C4CC4)c3c2F)CO1 (stereo not drawn)"
  MIC: "0.1 µg/mL"
- compound: "Cl.O=C(O)c1cn(C2CC2)c2cc(OC3CCNC3)c(F)cc2c1=O (stereo not drawn)"
  MIC: "3.13 µg/mL"
- compound: "CC1COc2c(OC3CCNC3)c(F)cc3c(=O)c(C(=O)O)cn1c23.Cl (stereo not drawn)"
  MIC: "1.56 µg/mL"
- compound: "CN(C)CC1CN(c2c(F)cc3c(=O)c(C(=O)O)cn(C4CC4)c3c2F)CO1 (stereo not drawn)"
  MIC: "0.2 µg/mL"
- compound: "CC1CN(c2cc3c(cc2F)c(=O)c(C(=O)O)cn3C2CC2)CO1 (stereo not drawn)"
  MIC: "0.1 µg/mL"
- compound: "CC1COc2c(OC3CCN(C)CC3)c(F)cc3c(=O)c(C(=O)O)cn1c23 (stereo not drawn)"
  MIC: "1.56 µg/mL"
- compound: "O=C(O)c1cn(C2CC2)c2c(F)c(N3CCOC3)c(F)c(F)c2c1=O"
  MIC: "0.2 µg/mL"
- compound: "CCn1cc(C(=O)O)c(=O)c2cc(F)c(OC3CCN(C)CC3)cc21"
  MIC: "1.56 µg/mL"

Here is the next item to consider.
Given item `O=C(O)c1cn(C2CC2)c2c(F)c(N3CCOC3)c(F)cc2c1=O` , the value recorded as its MIC is 0.2 µg/mL
